B1: PBXIP1 (parent)
chain: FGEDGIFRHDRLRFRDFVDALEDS

Variants of: B1
METHOD DESCRIPTION: protein stability index of a GFP-peptide fusion (GPS, HEK-293T) (PSI 1-6); higher = more stable;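 note: lentivirally expressed fusions sorted by FACS into six bins by GFP to DsRed ratio, PSI derived from sequencing read proportions per bin multiplied by bin number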
CONDITIONS USED: c terminus: a fixed tail appended
What protein stability index was measured for each of the following?
Format: numeric value only, no unit, no commentary.

Note to self: protein stability index recorded for `G2W` was 2.95

Notebook: `F1G` , protein stability index read as 3.59

protein stability index for `A20Y` is 2.11

Entry `R15V` , protein stability index reported as 2.02

# variant `D10S` ; its protein stability index = 2.06

Form: variant = `E22T` ; protein stability index = 2.08

Value of measured protein stability index for the entry `R15Y` : 2.22

`R13E` yielded protein stability index of 4.02

Data point: `E22I` ; protein stability index = 1.76

// protein stability index lookup, variant = `E3W` , result: 2.18

Lab book: protein stability index of `R8Q` noted as 2.97

`L12R` yielded protein stability index of 2.58

# protein stability index of `H9W` = 2.04

The variant listed as `F14I` has a reported protein stability index of 2.86

Given item `F17A` , the value recorded as its protein stability index is 3.46

Kindly note the recorded protein stability index for `H9D` , which is 3.76

The variant `E22A` showed protein stability index equal to 2

Query `L12N` yields protein stability index of 3.14

For record `R13V` the listed protein stability index is 2.72

Record `G2T` . Reported protein stability index: 2.35

The variant listed as `F14D` has a reported protein stability index of 3.84

Lab note: measured protein stability index of `L12F` was 2.56

Note to self: protein stability index recorded for `D23K` was 2.23

get_value(item= `I6P` , readout=protein stability index) returns 3.18

`R13L` has a reported protein stability index of 2.71

Input `A20C` . Output protein stability index: 3.05

According to the records, this variant `E3R` displays protein stability index of 3.02

Measured protein stability index of `F17G` : 3.57

protein stability index recorded for this variant, `G5M` , is 3.23

In plain terms, `F7I` has a documented protein stability index of 3.51

So, `L21V` ? Its protein stability index was 2.94

Kindly note the recorded protein stability index for `D23A` , which is 2.22

Lab book: protein stability index of `D16E` noted as 3.17

Value of measured protein stability index for the entry `V18D` : 3.1

Record `I6L` . Reported protein stability index: 2.3

protein stability index measured on `D16Y` = 1.88

# protein stability index (variant: `F1P` ) is 4.16

So for `D10A` , the logged protein stability index turned out to be 1.96

Briefly, protein stability index measured for `E3V` : 2.05

Recorded protein stability index (variant `F1S` ): 3.74

// field: protein stability index; key: `L12D` ; value = 3.38

Item: `R13I` | protein stability index: 2.26

Per the records, this variant ( `L21M` ) has protein stability index equal to 3.12

For this variant ( `R11H` ), measured protein stability index is 2.83

The measured protein stability index associated with `D16N` reads 1.89

Please fill in: protein stability index reported for `A20T` = 2.21
